Recorded IC50 values (UniProtKB P11712) are given below.
Sequence (P11712 whole entry): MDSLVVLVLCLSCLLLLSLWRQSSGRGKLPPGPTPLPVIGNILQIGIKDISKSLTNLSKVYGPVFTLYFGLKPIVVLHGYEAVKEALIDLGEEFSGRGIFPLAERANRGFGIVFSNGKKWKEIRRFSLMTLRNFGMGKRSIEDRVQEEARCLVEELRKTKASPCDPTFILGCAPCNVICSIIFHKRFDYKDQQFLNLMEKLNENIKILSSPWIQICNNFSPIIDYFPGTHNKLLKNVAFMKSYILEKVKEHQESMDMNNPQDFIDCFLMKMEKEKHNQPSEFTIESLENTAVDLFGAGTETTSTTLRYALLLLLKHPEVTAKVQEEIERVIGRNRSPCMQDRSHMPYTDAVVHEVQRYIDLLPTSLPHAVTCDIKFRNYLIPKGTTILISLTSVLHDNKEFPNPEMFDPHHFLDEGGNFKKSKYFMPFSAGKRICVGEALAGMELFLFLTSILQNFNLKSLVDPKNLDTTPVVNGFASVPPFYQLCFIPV

Solved cases below.
Cc1nnc2sc(C(=O)NCc3ccc(S(=O)(=O)C(F)(F)F)cc3)c(N)c2c1C
> 30 µM
Cc1nnc2sc(C(=O)NCc3ccc(S(F)(F)(F)(F)F)cc3)c(N)c2c1C
> 30 µM

Which value of IC50 has been reported for Cc1nnc2sc(C(=O)NCc3ccc(S(=O)(=O)C(F)F)cc3)c(N)c2c1C in the records?
> 30 µM

###

- system: Muscarinic acetylcholine receptor M3 (Rattus norvegicus)
- Sequence (P08483 whole entry): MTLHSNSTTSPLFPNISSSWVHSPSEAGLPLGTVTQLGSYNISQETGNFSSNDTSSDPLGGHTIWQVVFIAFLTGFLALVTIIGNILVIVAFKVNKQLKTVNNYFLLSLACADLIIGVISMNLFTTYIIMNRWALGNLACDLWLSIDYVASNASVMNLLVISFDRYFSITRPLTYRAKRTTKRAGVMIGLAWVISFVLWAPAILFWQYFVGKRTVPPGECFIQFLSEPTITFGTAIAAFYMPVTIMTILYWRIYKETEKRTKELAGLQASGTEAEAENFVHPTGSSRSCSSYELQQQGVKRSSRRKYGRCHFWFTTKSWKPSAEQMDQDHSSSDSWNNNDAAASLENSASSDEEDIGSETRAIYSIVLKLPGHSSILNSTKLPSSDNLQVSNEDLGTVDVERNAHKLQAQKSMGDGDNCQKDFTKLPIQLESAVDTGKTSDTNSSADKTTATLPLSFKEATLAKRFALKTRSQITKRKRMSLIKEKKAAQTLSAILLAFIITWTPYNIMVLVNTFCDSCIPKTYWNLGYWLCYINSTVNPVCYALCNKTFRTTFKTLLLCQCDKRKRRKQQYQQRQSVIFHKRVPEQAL
- experimentalProtocol: Binding affinity to rat M3 receptor by radio-ligand binding assay
metric: EC50

Solved cases below.
Cc1nnc2sc(C(=O)NCc3ccc(S(=O)(=O)C(F)F)cc3)c(N)c2c1C
> 30 µM
Cc1nnc2sc(C(=O)NCc3ccc(S(F)(F)(F)(F)F)cc3)c(N)c2c1C
> 30 µM

Continue with the molecule presented below.
Which value of EC50 has been reported for Cc1nnc2sc(C(=O)NCc3ccc(S(=O)(=O)C(F)(F)F)cc3)c(N)c2c1C in the records?
> 30 µM

Measured values drawn from ChEMBL document CHEMBL3872258 for this set.
